For each record, write down the corresponding Ratio: KD with MTX / KD without MTX.
- tested on: T1, human CD33 antigen (human, UniProt P20138 18-259, limits assumed)
- T1 construct: whole entry named; also called Siglec-3
- T1 sequence (P20138 18-259 limits assumed): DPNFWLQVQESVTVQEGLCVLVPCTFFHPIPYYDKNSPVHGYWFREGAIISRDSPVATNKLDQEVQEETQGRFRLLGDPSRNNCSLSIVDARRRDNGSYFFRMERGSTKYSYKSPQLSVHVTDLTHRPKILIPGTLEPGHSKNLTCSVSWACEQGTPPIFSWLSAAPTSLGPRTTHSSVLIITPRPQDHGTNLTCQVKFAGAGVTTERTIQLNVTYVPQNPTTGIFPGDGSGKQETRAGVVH
- experiment: SPR (Biacore T200), 37 C; KD at 10 uM MTX / KD at 0 uM MTX
Numbers only.

{"binder": "P02_C02 scFv-Fc fusion (scFv, V domains shown, Tested as scFv-Fc fusion) VH: QVQLVESGGGLVQAGGSLRLSCAASRRSSRSWAMHWVRQAPGKGLEWVAVISYDGRLKYYADSVKGRFTISRDNAEYLVYLQMNSLRAEDTAVYYCAAEGGMGLDPWGQGTLVTVSS VL: DIQMTQSPSSLSASVGDRVTITCRASQTISSYLNWYQQKPGKAPKLLIYAASNLHSGVPSRFSGSGSGTDFTLTISSLQPEDFATYYCQQSYSSGTFGQGTKVEIK", "assay endpoint": "Ratio: KD with MTX / KD without MTX", "numeric value": 1}

Batch: Ratio: KD with MTX / KD without MTX for all items listed.
1. P03_A01 scFv-Fc fusion (scFv, V domains shown, Tested as scFv-Fc fusion) VH: QVQLVESGGGLVQAGGSLRLSCAASRRSSRSWAMHWVRQAPGKGLEWVAVISYDGRLKYYADSVKGRFTISRDNAEYLVYLQMNSLRAEDTAVYYCAAETGSVGLDYWGQGTLVTVSS VL: DIQMTQSPSSLSASVGDRVTITCRASQGISTYLNWYQQKPGKAPKLLIYGATSLESGVPSRFSGSGSGTDFTLTISSLQPEDFATYYCQQGYSQGTFGQGTKVEIK
2. P07_C04 scFv-Fc fusion (scFv, V domains shown, Tested as scFv-Fc fusion) VH: QVQLVESGGGLVQAGGSLRLSCAASRRSSRSWAMHWVRQAPGKGLEWVAVISYDGRLKYYADSVKGRFTISRDNAEYLVYLQMNSLRAEDTAVYYCAAEPDGEGTNGGLDIWGQGTLVTVSS VL: DIQMTQSPSSLSASVGDRVTITCRASQNISRYLNWYQQKPGKAPKLLIYSASSLQTGVPSRFSGSGSGTDFTLTISSLQPEDFATYYCQQSYSSGAFGQGTKVEIK

Reply text:
1: 37; 2: 4.7
